Entry source: patent US20260327244A1

Measured Kd values are reported for all entries that follow.
- Target: wild-type (WT) KRAS (aa1-185) (Homo sapiens)
- Construct: wild-type (WT) KRAS (aa1-185)
- Method: KRAS Surface Plasma Resonance (SPR) binding assay, WT KRAS
- Condition Context: SPR at 10 °C, geometric mean when tested more than once
Your answer should be a plain number; it is taken to be in pM.

C#Cc1cccc2cc(O)cc(-c3ncc4c(N5CC[C@@](C)(CC#N)C5)nc(OC[C@@]56CCCN5C[C@H](F)C6)nc4c3F)c12 :: 2890
C#Cc1cccc2cc(O)cc(-c3ncc4c(N5CC[C@H](CC#N)C5)nc(OC[C@@]56CCCN5C[C@H](F)C6)nc4c3F)c12 :: 4790
Oc1cc(-c2ncc3c(N4C[C@@H]5C[C@H](C4)[C@H](O)C5)nc(OC[C@@]45CCCN4C[C@H](F)C5)nc3c2F)c2c(Cl)cccc2c1 :: 75
C#Cc1cccc2cc(O)cc(-c3ncc4c(N5CCC[C@@H](CC#N)C5)nc(OC[C@@]56CCCN5C[C@H](F)C6)nc4c3F)c12 :: 273
C#Cc1c(F)c(F)cc2cc(O)cc(-c3nc4c5c(nc(OC[C@@]67CCCN6C[C@H](F)C7)nc5c3F)N3CCCC[C@H]3CO4)c12 [Example 32] :: 9

Quote Kd reported for "C#Cc1cccc2cc(O)cc(-c3ncc4c(N5CCN(C(C)=O)[C@@H](CC#N)C5)nc(OC[C@@]56CCCN5C[C@H](F)C6)nc4c3F)c12" please.
308

* * *

- Target: G12C KRAS (aa2-184) (Homo sapiens, UniProt P01116, G12C)
- Sequence (P01116 2-184 isoform P01116-2 G12C): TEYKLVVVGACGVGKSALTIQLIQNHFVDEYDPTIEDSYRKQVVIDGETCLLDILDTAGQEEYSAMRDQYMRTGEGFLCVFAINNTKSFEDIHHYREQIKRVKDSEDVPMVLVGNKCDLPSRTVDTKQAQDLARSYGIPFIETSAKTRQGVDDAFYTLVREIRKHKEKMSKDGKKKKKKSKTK
- Method: biochemical
Lab note - cut at 8 nM for Kd: criterion met if strictly below, criterion not met if not.

C#Cc1cccc2cc(O)cc(-c3ncc4c(N5C[C@H](CC#N)[C@@H](F)C5)nc(OC[C@@]56CCCN5C[C@H](F)C6)nc4c3F)c12 (mixture of isomers) :: criterion not met
C#Cc1cccc2cc(O)cc(-c3ncc4c(N5CCC[C@@H](CC#N)C5)nc(OC[C@@]56CCCN5C[C@H](F)C6)nc4c3F)c12 :: criterion met
CC(=O)N1CCN(c2nc(OC[C@@]34CCCN3C[C@H](F)C4)nc3c(F)c(-c4cc(O)cc5ccc(F)c(F)c45)ncc23)C[C@@H]1CC#N :: criterion met
C#Cc1c(F)c(F)cc2cc(O)cc(-c3nc4c5c(nc(OC[C@@]67CCCN6C[C@H](F)C7)nc5c3F)N3CCCC[C@H]3CO4)c12 :: criterion met
N#C[C@@H]1CCCN1c1nc(OC[C@@]23CCCN2C[C@H](F)C3)nc2c(F)c(-c3cc(O)cc4ccc(F)c(F)c34)ncc12 :: criterion not met

Now for a further molecule.
Lab note: confirm whether the reported Kd for this molecule is below 8 nM, equality not counting. molecule: "C#Cc1c(F)ccc2cc(O)cc(-c3ncc4c(N5C[C@@H]6C[C@H](C5)[C@H](O)C6)nc(OC[C@@]56CCCN5C[C@H](F)C6)nc4c3F)c12"
criterion met

* * *

- Target: G12D KRAS (aa1-185) (Homo sapiens, UniProt P01116, G12D)
- Sequence (P01116 1-185 isoform P01116-2 G12D): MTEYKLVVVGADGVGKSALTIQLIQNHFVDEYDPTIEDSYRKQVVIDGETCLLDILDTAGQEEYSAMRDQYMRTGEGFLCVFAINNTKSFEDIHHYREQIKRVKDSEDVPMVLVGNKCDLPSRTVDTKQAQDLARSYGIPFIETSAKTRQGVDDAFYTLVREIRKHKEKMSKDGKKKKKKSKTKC
- Method: biochemical
Measured pKd values are reported for all entries that follow.
Lab note — pKd values are minus log10 of concentrations in M.

C#Cc1cccc2cc(O)cc(-c3ncc4c(N5CC[C@@](C)(CC#N)C5)nc(OC[C@@]56CCCN5C[C@H](F)C6)nc4c3F)c12 :: 7.98
C#Cc1cccc2cc(O)cc(-c3ncc4c(N5C[C@@H]6C[C@H](C5)[C@H](O)C6)nc(OC[C@@]56CCCN5C[C@H](F)C6)nc4c3F)c12 :: 10.00

Proceed to the following item.
Quote pKd reported for "C#Cc1c(F)ccc2cc(O)cc(-c3nc4c5c(nc(OC[C@@]67CCCN6C[C@H](F)C7)nc5c3F)N3CCC[C@@H](O)[C@H]3CO4)c12" please.
10.52

* * *

- Target: G12C KRAS (aa2-184) (Homo sapiens, UniProt P01116, G12C)
- Method: biochemical
Measured Metric: log10 of Kd (log10 of the value in pM)
// stored as log10 of Kd expressed in pM

Quote log10 of Kd reported for "C#Cc1cccc2cc(O)cc(-c3ncc4c(N5CC[C@@](C)(CC#N)C5)nc(OC[C@@]56CCCN5C[C@H](F)C6)nc4c3F)c12" please.
4.06

* * *

- Target: G12V KRAS (aa2-184) (Homo sapiens, UniProt P01116, G12V)
- Sequence (P01116 2-184 isoform P01116-2 G12V): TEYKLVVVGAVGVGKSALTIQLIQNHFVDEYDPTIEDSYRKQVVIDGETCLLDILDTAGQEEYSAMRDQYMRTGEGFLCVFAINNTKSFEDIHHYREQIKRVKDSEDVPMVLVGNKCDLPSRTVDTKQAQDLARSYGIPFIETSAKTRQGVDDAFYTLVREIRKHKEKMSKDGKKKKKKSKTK
- Method: biochemical
pKd: −log10 of the molar value.
# cutoff 9 applies to pKd; >= gives met, < gives not met

# example entries with known answers
C#Cc1cccc2cc(O)cc(-c3ncc4c(N5CCN(C(C)=O)[C@@H](CC#N)C5)nc(OC[C@@]56CCCN5C[C@H](F)C6)nc4c3F)c12 :: not met
Oc1cc(-c2ncc3c(N4C[C@@H]5C[C@H](C4)[C@H](O)C5)nc(OC[C@@]45CCCN4C[C@H](F)C5)nc3c2F)c2ccccc2c1 :: met
C#Cc1c(F)ccc2cc(O)cc(-c3nc4c5c(nc(OC[C@@]67CCCN6C[C@H](F)C7)nc5c3F)N(CCO)CCO4)c12 :: met
Oc1cc(-c2ncc3c(N4C[C@@H]5C[C@H](O)[C@@H]5C4)nc(OC[C@@]45CCCN4C[C@H](F)C5)nc3c2F)c2c(Cl)cccc2c1 (relative stereo) :: not met

Test whether the compound "C#Cc1cccc2cc(O)cc(-c3ncc4c(N5C[C@@H]6C[C@H](C5)[C@H](O)C6)nc(OC[C@@]56CCCN5C[C@H](F)C6)nc4c3F)c12" records pKd of 9 or higher.
met

* * *

- Target: wild-type (WT) KRAS (aa1-185) (Homo sapiens, UniProt P01116)
- Construct: wild-type (WT) KRAS (aa1-185)
- Sequence (P01116 1-185 isoform P01116-2): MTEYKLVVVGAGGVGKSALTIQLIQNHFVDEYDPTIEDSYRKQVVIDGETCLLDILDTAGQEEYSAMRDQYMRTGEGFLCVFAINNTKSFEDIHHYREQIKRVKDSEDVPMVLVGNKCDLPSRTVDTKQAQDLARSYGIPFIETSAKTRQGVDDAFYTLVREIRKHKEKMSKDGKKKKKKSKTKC
- Method: KRAS Surface Plasma Resonance (SPR) binding assay, WT KRAS
- Condition Context: SPR at 10 °C, geometric mean when tested more than once
Measured Metric: pKd
Lab note — pKd values are minus log10 of concentrations in M.

Illustrative cases are given below, each with its answer.
C#Cc1cccc2cc(O)cc(-c3ncc4c(N5C[C@@H]6C[C@H](O)[C@H](C5)O6)nc(OC[C@@]56CCCN5C[C@H](F)C6)nc4c3F)c12 (single isomer, unassigned) :: 7.55
C#Cc1c(F)ccc2cc(O)cc(-c3nc4c5c(nc(OC[C@@]67CCCN6C[C@H](F)C7)nc5c3F)N(C)CCO4)c12 :: 9.84

Proceed to the following item.
Quote pKd reported for "C#Cc1cccc2cc(O)cc(-c3ncc4c(N5CC[C@@H](CC#N)C5)nc(OC[C@@]56CCCN5C[C@H](F)C6)nc4c3F)c12" please.
8.72

* * *

- Target: G12D KRAS (aa1-185) (Homo sapiens, UniProt P01116, G12D);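 further: surface plasmon resonance at 10 °C, KRAS captured on a streptavidin chip in GDP-containing buffer, compound dilution series injected, blank streptavidin surface as reference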
- Method: biochemical
Measured Metric: Kd (nM)
Your answer should be a plain number; it is taken to be in nM.

C#Cc1cccc2cc(O)cc(-c3ncc4c(N5C[C@@H]6C[C@H](O)[C@H](C5)O6)nc(OC[C@@]56CCCN5C[C@H](F)C6)nc4c3F)c12 (single isomer, unassigned) :: 78.3
Oc1cc(-c2ncc3c(N4C[C@H]5C[C@@H](O)[C@H]5C4)nc(OC[C@@]45CCCN4C[C@H](F)C5)nc3c2F)c2c(Cl)cccc2c1 (relative stereo) :: 1.01
Oc1cc(-c2ncc3c(N4C[C@@H]5C[C@H](C4)[C@H](O)C5)nc(OC[C@@]45CCCN4C[C@H](F)C5)nc3c2F)c2ccccc2c1 :: 0.553
C#Cc1c(F)ccc2cc(O)cc(-c3ncc4c(N5C[C@@H]6C[C@H](C5)[C@H](O)C6)nc(OC[C@@]56CCCN5C[C@H](F)C6)nc4c3F)c12 :: 0.297

Proceed to the following item.
Quote Kd reported for "C#Cc1cccc2cc(O)cc(-c3ncc4c(N5CCN(C(C)=O)[C@@H](CC#N)C5)nc(OC[C@@]56CCCN5C[C@H](F)C6)nc4c3F)c12" please.
14.1

* * *

- Target: wild-type (WT) KRAS (aa1-185) (Homo sapiens)
- Construct: wild-type (WT) KRAS (aa1-185)
- Method: KRAS Surface Plasma Resonance (SPR) binding assay, WT KRAS
- Condition Context: SPR at 10 °C, geometric mean when tested more than once
- From the text: No additional regeneration was used. Compound dissociation was monitored for at least 3600 seconds. […] No additional regeneration was used.
pKd: −log10 of the molar value. Counter-ions that a name gives are not always drawn.
# cutoff 9 applies to pKd; >= gives Yes, < gives No

C#Cc1c(F)ccc2cc(O)cc(-c3ncc4c(N5CCC[C@@H](CC#N)C5)nc(OC[C@@]56CCCN5C[C@H](F)C6)nc4c3F)c12 :: Yes

Test whether the molecule Oc1cc(-c2ncc3c(N4C[C@H]5CC[C@@H](C4)O5)nc(OC[C@@]45CCCN4C[C@H](F)C5)nc3c2F)c2c(F)c(F)ccc2c1 [Example 16, acetic acid salt] records pKd of 9 or higher.
No

Test whether the molecule C#Cc1c(F)c(F)cc2cc(O)cc(-c3nc4c5c(nc(OC[C@@]67CCCN6C[C@H](F)C7)nc5c3F)N3CCCC[C@H]3CO4)c12 [Example 33] records pKd of 9 or higher.
Yes

Test whether the molecule "N#C[C@@H]1CCCN1c1nc(OC[C@@]23CCCN2C[C@H](F)C3)nc2c(F)c(-c3cc(O)cc4ccc(F)c(F)c34)ncc12" records pKd of 9 or higher.
No

Test whether the molecule "C#Cc1c(F)ccc2cccc(-c3nc4c5c(nc(OC[C@@]67CCCN6C[C@H](F)C7)nc5c3F)N3C[C@@H](O)CC[C@H]3CO4)c12" records pKd of 9 or higher.
No

Test whether the molecule "Oc1cc(-c2ncc3c(N4C[C@@H]5C[C@H](C4)[C@H](O)C5)nc(OC[C@@]45CCCN4C[C@H](F)C5)nc3c2F)c2c(F)c(F)ccc2c1" records pKd of 9 or higher.
Yes
